# TARGET_OF_ASSAY: LSD1 (Homo sapiens (Human), UniProt O60341)
# EXPERIMENT: LSD1 inhibition, enzyme fluorescent conjugated method
# Type: biochemical
# COND: 10 concentrations, initial 10 μM, 3-fold dilution, read-out: IC50 (nM) Mean ± standard deviation
METRIC_NAME: IC50
Hi, when you answer, please include the unit after the number. Thanks!

Input line: Find the measured IC50 of N[C@H]1CC[C@H](c2nc(C3(CN[C@@H]4C[C@H]4c4ccccc4)CC3)no2)CC1 [Crystal form A of Compound III] and report it.
Output line: 8 nM
